I'd appreciate it if you could supply composite z-score values for the items below.
- Test system: Lefty1
- EXPERIMENTAL DETAILS: Lefty1 binders on small-molecule microarrays, primary screen, biochemical, small-molecule microarray, 635/667 nm fluorescence (AID 1139)
- PROTOCOL CONDITIONS: small-molecule microarray binding, fluorescence 635/667; higher = more signal
One number for each entry.

COMPOUND | composite z-score
COC(=O)CC=C[C@@H](C)[C@@H](C=NO[C@H](C)c1cn([C@H](CO)Cc2ccccc2)nn1)NS(=O)(=O)c1ccc(C)cc1 | 0.19

Look at each compound and report its composite z-score.
1. CON=C1[C@H]2CCn3c(=O)n(-c4ccccc4)c(=O)n3[C@H]2[C@H](O)[C@@H]2O[C@H]12
2. CCOC(=O)[C@H](CC(C)C)NC(=O)CCC1CC(OC(=O)NCc2ccc3c(c2)OCO3)CC2(CCCC(COC(=O)NCC3CCCCC3)O2)O1 (stereo partly drawn)
3. CO[C@H]1COC(=O)CC=C[C@@H](C)[C@H](OC)COC(=O)CCC[C@@H]1C
4. O=c1n(Cc2cc3c(cc2Cl)OCO3)c(=O)n2n1CC[C@@H]1C(=NOC[C@@H](O)COCc3ccco3)[C@H]3O[C@H]3[C@@H](O)[C@@H]12
5. CO[C@H]1COC(=O)CCC[C@@H](C)[C@H](OC)COC(=O)[C@@H](C)NC(=O)CC=C[C@@H]1C
6. CC(CCN1CCc2nc(-c3ccccc3)c(-c3ccccc3)cc2C1)=NOC[C@@H](O)COCc1ccco1

Result:
0.695
1.63
0.945
0.414
1.42
1.03

Q: Look at this compound and give its reported composite z-score. `COc1cccc([C@H]2Oc3ccc(OC)cc3C(=NOC[C@@H](O)COCc3ccco3)[C@@H]2O)c1`
Result: -0.488

###

- TARGET: Alpha-bungarotoxin (Bungarus multicinctus)
- EXPERIMENTAL DETAILS: alpha-bungarotoxin binders on microarray, profiling panel, artefact control for SMM control protein annotation, biochemical, small-molecule microarray, Alexa647 label, 635/667 nm fluorescence (AID 1117)
- PROTOCOL CONDITIONS: alpha-BTX-A647 binding fluorescence, higher = more signal
MEASURED PARAMETER: composite z-score
Give bare numbers.

Below, each entry is followed by its recorded composite z-score result.
SMILES STRUCTURE | composite z-score
C[C@@H](c1ccccc1)N1C(=O)[C@H]2[C@H]3[C@H](O)[C@H](O)CC(=O)[C@H]3CC[C@H]2C1=O | -0.0931
CCOC(=O)NN=C1C[C@@H](O)[C@@H](O)[C@@H]2[C@@H]3C(=O)N(Cc4ccccc4)C(=O)[C@@H]3CC[C@H]12 | 0.405
COc1ccc(COC(=O)NN=C2C[C@@H](O)[C@@H](O)[C@@H]3[C@@H]4C(=O)N(C5CCCCC5)C(=O)[C@@H]4CC[C@H]23)cc1 | 0.161
COC(=O)CC=C[C@@H](C)[C@@H](C=NOC[C@H]1O[C@H](c2ccccc2)C=C[C@@H]1Oc1ccc(OC)cc1)OC | -0.262
C[C@H]1COC(=O)[C@@H]2CCCN2C(=O)[C@@H](C)COC(=O)[C@H](Cc2ccccc2)NC1=O | 0.158

Look at each compound and report its composite z-score.
1. C=CC[C@@H]1C=C[C@H](ON=C[C@@H](C)[C@H](OCc2ccccc2)C(C)C)[C@@H](CO)O1
2. C[C@@H](c1ccccc1)N1C(=O)[C@H]2[C@H]3[C@H](O)[C@H](O)CC(=NO[C@@H]4O[C@H](CO)[C@@H](O)[C@H](O)[C@H]4O)[C@@H]3CC[C@H]2C1=O

Result:
[-0.901, 0.199]

###

- Test system: Inhibin beta A chain (activin A)
- EXPERIMENTAL DETAILS: INHBA (activin A) binders on microarrays, primary screen, biochemical, small-molecule microarray, 635 nm fluorescence scan (AID 1107);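 also: mouse activin A protein probed at 4.33 µg/mL on printed slides; score merges bound-protein fluorescence near 667 nm with spot signal-to-noise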
- PROTOCOL CONDITIONS: small-molecule microarray binding, higher = more signal
Ranges used to classify composite z-score: bin 0: < 0.06; bin 1: ≥ 0.06 and < 0.6; bin 2: ≥ 0.6

Worked set:
COMPOUND | LABEL VALUE
COC(=O)[C@H](C)NC(=O)CCC1CC(OC(=O)NCCc2ccc(F)cc2)CC2(CCCC(COC(=O)NCc3cccc(C(F)(F)F)c3)O2)O1 (stereo partly drawn) | bin 1
COc1ccc(COC(=O)NN=C2C[C@@H](O)[C@@H](O)[C@@H]3[C@@H]4C(=O)N(c5ccc(F)cc5F)C(=O)[C@@H]4CC[C@H]23)cc1 | bin 0

Q: Consider `COC(=O)NCC=Cc1nc(CCCO)co1` . To which composite z-score class does it belong?
Result: bin 1

Q: Then `COc1ccc(O[C@H]2C=C[C@@H](c3ccccc3)O[C@@H]2CON=C(C)CCC(=O)OC[C@H]2O[C@H](c3ccccc3)C=C[C@@H]2Oc2ccc(OC)cc2)cc1` ?
Result: bin 2

Q: Then `CO[C@H]1COC(=O)CC=C[C@H](C)[C@@H](OC)COC(=O)[C@H](C)COC(=O)CC=C[C@@H]1C` ?
Result: bin 2

###

- System: Inhibin beta A chain (activin A)
- EXPERIMENTAL DETAILS: INHBA (activin A) binders on microarrays, primary screen, biochemical, small-molecule microarray, 635 nm fluorescence scan (AID 1107);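 also: mouse activin A protein probed at 4.33 µg/mL on printed slides; score merges bound-protein fluorescence near 667 nm with spot signal-to-noise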
- PROTOCOL CONDITIONS: small-molecule microarray binding, higher = more signal
I'd appreciate it if you could supply composite z-score values for the items below.
Give bare numbers.

Below, each entry is followed by its recorded composite z-score result.
COMPOUND | composite z-score
COc1ccc(O[C@H]2C=C[C@@H](c3ccccc3)O[C@@H]2COC(=O)CCC(C)=NOC[C@@H](O)[C@H]2O[C@@H]3OC(C)(C)O[C@@H]3[C@H]2O)cc1 | 0.437
COc1ccc(O[C@H]2C=C[C@@H](c3ccccc3)O[C@@H]2CON=C(C)CCN2CCc3nc(-c4ccccc4)c(-c4ccccc4)cc3C2)cc1 | 0.829

Look at each compound and report its composite z-score.
1. C[C@H]1CC[C@H]2C(=O)O[C@H](COc3ccc(C(C)(C)C)cc3)CN2[C@@H]1c1ccc(Br)cc1
2. C=C(C)C(=O)OCC1CN2[C@@H](CC[C@@H](C)[C@@H]2c2ccc(Br)cc2)C(=O)O1 (some centres undefined)
3. CC(=O)OC[C@H]1O[C@H](CCON=C2[C@H]3CCn4c(=O)n(-c5ccccc5)c(=O)n4[C@H]3[C@H](O)[C@@H]3O[C@H]23)C=C[C@@H]1OC(C)=O
4. CCOC(=O)CCN1C(=O)[C@H]2[C@H]3[C@H](O)[C@H](O)CC(=NOCc4ccccc4)[C@H]3CC[C@H]2C1=O
5. Cc1cc2c(c(=O)o1)[C@@H](O)[C@H]1O[C@H]1C2=O
6. CC(C)(C)N1C(=O)[C@H]2[C@H]3[C@H](O)[C@H](O)CC(=NO[C@@H]4O[C@H](CO)[C@@H](O)[C@H](O)[C@H]4O)[C@H]3CC[C@H]2C1=O
7. CC(C)(C)N1C(=O)[C@H]2[C@H]3[C@H](O)C=CC(=O)[C@@H]3CC[C@H]2C1=O
8. COC(=O)CC=C[C@@H](C)[C@@H](C=NOCC[C@@H]1C=C[C@H](OC(C)=O)[C@@H](COC(C)=O)O1)NS(=O)(=O)c1ccc(C)cc1

Result:
[0.0563, -0.0608, -0.636, 0.288, 0.0545, 1.35, -0.214, 0.46]

Look at each compound and report its composite z-score.
1. Cc1ccc(S(=O)(=O)N[C@H]2COC(=O)CC=C[C@H](C)[C@@H](NS(=O)(=O)c3ccc(C)cc3)COC(=O)CC=C[C@@H]2C)cc1
2. COc1ccc(COC(=O)NN=C2C[C@@H](O)[C@@H](O)[C@@H]3[C@@H]4C(=O)N(Cc5ccccc5)C(=O)[C@@H]4CC[C@H]23)cc1
3. CCOC(=O)[C@H](CC(C)C)NC(=O)CCC1CC(OC(=O)NCc2cccc3ccccc23)CC2(CCCC(COC(=O)NCc3cccc(C(F)(F)F)c3)O2)O1 (some centres undefined)
4. CC(C)=CCCC(C)=CCON=C1C[C@@H](O)[C@@H](O)[C@@H]2[C@@H]3C(=O)N(c4ccc(F)cc4F)C(=O)[C@@H]3CC[C@H]12

Result:
-0.136
0.0152
-0.0188
0.342

###

- Tested on: Human papillomavirus type 1a E7 protein (residues 1-88)
- EXPERIMENTAL DETAILS: HPV1a E7 small-molecule binders, primary screen, biochemical, small-molecule microarray, residues 1-88, 635 nm (AID 1129)
- PROTOCOL CONDITIONS: small-molecule microarray binding, fluorescence 635 nm; higher = more signal
Label condition met for high-side composite z-score (at or above -0.03) and condition not met for low-side composite z-score (below it).

Q: Given `COc1ccc(COC(=O)NN=C2C[C@@H](O)[C@@H](O)[C@@H]3[C@@H]4C(=O)N(c5cccc(Oc6ccccc6)c5)C(=O)[C@@H]4CC[C@@H]23)cc1` , state whether its composite z-score is at least -0.03.
Result: condition not met

Q: Then `COC(=O)CC=C[C@H](C)[C@@H](OCc1cccc(Br)c1)[C@@H](C)[C@H](OC)C1CCCCC1` ?
Result: condition not met

Q: Then `CCOC(=O)C1=NO[C@@]2(C=C(Br)C3(OCCCO3)[C@H]3O[C@H]32)C1` ?
Result: condition met

Q: Then `Cc1cc2c(nc1C)CCCN2CC(O)CN1CCCc2nc(C)c(C)cc21` ?
Result: condition not met

Q: Then `CO[C@H]1COC(=O)CC=C[C@@H](C)[C@H](NS(=O)(=O)c2ccc(C)cc2)COC(=O)CCC[C@@H]1C` ?
Result: condition not met

Q: Then `C[C@@H](c1ccccc1)N1C(=O)[C@H]2[C@H]3[C@H](O)[C@H](O)CC(=NOCc4ccccc4)[C@H]3CC[C@H]2C1=O` ?
Result: condition met

Q: Then `C[C@@H](c1ccccc1)N1C(=O)[C@H]2[C@H]3[C@H](O)[C@H](O)CC(=NO[C@@H]4O[C@H](CO)[C@@H](O)[C@H](O)[C@H]4O)[C@H]3CC[C@H]2C1=O` ?
Result: condition met
